tested on: TK-10 renal; assay: NCI-60 one-dose screen, 48 h (100 = growth as untreated, 0 = no growth, -100 = all killed); settings: 10 µM unless noted
About 83,000 compounds went through this panel and 20% of them were active in at least one assay; those are over-represented in the sample as a whole.

Compound	Unit Of Measurement	growth
Nc1nonc1-c1nc2ccccc2n1Cc1ccc(F)cc1	%	55.9
COc1cc(-c2csc(NC(=O)Nc3cccc(C(F)(F)F)c3)n2)cc(OC)c1OC	%	49.4
CN1CCN(Cc2ccc(NC(=O)c3cncc(C#Cc4ccc(N)nc4)c3)cc2C(F)(F)F)CC1	%	12.7
CCn1c(CN2CCN(Cc3ccccc3)CC2)nc2cc(NC(=O)c3cccs3)ccc21	%	-94.1
O=C1OCC2=C1C(c1cccc(Br)c1)c1cc3c(cc1N2CCO)OCCO3 (configuration not stated)	%	62.7
Brc1cccc(-n2ncc3c(Nc4ccc(-c5nnc(-c6ccccc6)o5)cc4)ncnc32)c1	%	120
CC(CN1CCN(CCOCCO)CC1)CN1c2ccccc2Sc2ccc(Cl)cc21 (configuration not stated)	%	74.4
CCOC(=O)Nc1ccc2nc(-c3cscn3)[nH]c2c1	%	63.2
c1ccc2c(c1)cnc1ccccc12	%	116
Fc1cc(-c2nnc3sc(-c4ccc(Cl)cc4)nn23)c(Cl)cc1Cl	%	99.9
CC(=O)c1ccc(-n2c(-c3cc(-c4ccsc4)n[nH]3)n[nH]c2=S)cc1	%	98
O=C(NCC(c1ccsc1)N1CCCCCC1)c1ccc(C(F)(F)F)cc1 (configuration not stated)	%	94.5
Cc1ccc(N=CNN=C(N)N)cc1	%	118
O=C(NO)c1ccc(NCc2csc3ccccc23)cc1	%	59.1
COc1cc(/C=C/c2ccc3c(Br)cc(Br)c(O)c3n2)ccc1O	%	30.3
CCN(CC)c1ccc(C(=N)c2ccc(N(C)C)cc2)cc1	%	31.4
COc1ccc(NC(=O)C2c3ccccc3C(=O)N(CC(C)C)C2c2cccs2)cc1 (configuration not stated)	%	97.8
Clc1ccc2c(c1)-n1cccc1C(c1ccc3ccccc3c1)=NC2	%	185
NS(=O)(=O)c1ccc(N2N=C(c3cccs3)CC2c2ccccc2O)cc1 (configuration not stated)	%	23.5
FC1(F)CCN(Cc2c[nH]c3cc(Cl)ccc23)C[C@H]1CCc1ccccc1	%	61.6
COc1ccc2c(c1)CCCC21C(=O)Nc2ccccc21 (configuration not stated)	%	95.4
CO[C@@]12[C@@H]3NC3CN1C1=C(C(=O)C(N)=C(C)C1=O)[C@@H]2COC(N)=O (some centres not stated)	%	9.47

* * *

tested on: CCRF-CEM leukemia; experiment: NCI-60 one-dose screen, 48 h; conditions: 10 µM unless noted
This is part of a sample that, as a whole, favours compounds with a hit. Of some 83,000 tested, about 20% had one in any assay. Calls of active or inactive are those of the source. The calls were made as follows: active = growth percent below 10; inactive = the rest.
Outcome codes: active, inactive

Compound	Target Desc	Class Label
CCN(CC)CCCCCCCNc1cc(OC)cc2c(C)ccnc12	CCRF-CEM leukemia	inactive
COc1ccc(C2C3CCc4ccccc4C3=NN2C(=O)c2cc(OC)c(OC)c(OC)c2)cc1O (stereo not given)	CCRF-CEM leukemia	inactive
CC1=C(C(=O)Nc2ccc(F)cc2)C(c2ccc(C)cc2)C2=C(CC(C)(C)CC2=O)N1 (stereo not given)	CCRF-CEM leukemia	inactive
Oc1[nH]c2ccccc2c1/C=c1/ccc2c(c1)N=C(c1ccc(C(F)(F)F)cc1)N=2	CCRF-CEM leukemia	active
Cc1n(Cc2ccc3ccccc3n2)cc[n+]1Cc1ccc2ccccc2c1	CCRF-CEM leukemia	inactive

* * *

Test system: UACC-62 melanoma
Experiment: NCI-60 one-dose screen, 48 h (100 = growth as untreated, 0 = no growth, -100 = all killed)
Details: 10 µM unless noted
Protocol: Growth inhibition of the UACC-62 human tumor cell line is measured as a screen for anti-cancer activity. Cells are grown in 96 well plates and exposed to the test compound for 48 hours. Compounds are tested at a single concentration, which is 10^-5 M for most compounds. The reported endpoint is percent growth (GI% or GIPRCNT), where numbers from 0 - 100% represent growth inhibition, and numbers from -100% - 0 represent cell death. For example, a value of 40 represents 60% growth inhibition. […]
About 83,000 compounds went through this panel and 20% of them were active in at least one assay; those are over-represented in the sample as a whole.
growth values by entry
Outcome Measure: growth (%)

Molecule	Readout Number
CNC(=O)c1cc(Oc2ccc(NC(=O)c3nc(S(C)(=O)=O)sc3-c3ccc(F)cc3)cc2)ccn1	93.3
CC(C)[C@H](CN)NC[C@H](C)NS(=O)(=O)c1ccc(C(C)(C)C)cc1	111
Brc1ccccc1Cn1c(-c2cncs2)nc2ccccc21	70.1
Fc1ccc2nc(-c3ccc(-c4noc(-c5ccc(Cl)cc5)n4)cc3)[nH]c2c1	113
O=C(N=Nc1c(Cl)c(O)c2ccccc2c1O)C(=O)Nc1cccc(C(F)(F)F)c1	83.2
C/C(=N\NC(=S)N1CCCCC1)c1ccccn1	-14.3
O=C(CI)NCCNc1cccc2c(S(=O)(=O)O)cccc12	89.5
COc1ccc2c(c1)N(CCO)C1=C(C(=O)OC1)C2c1cccc(Br)c1 (configuration not stated)	25
Cc1ccccc1N1C(c2ccccc2)=NNC12C=CC(=O)c1c(O)cccc12 (configuration not stated)	12
O=C(OCc1ccc2c(Cl)cc(Cl)c(O)c2n1)c1cc2ccccc2[nH]1	-70.7
COc1c(C(=O)/C=C/c2ccc(C)o2)c(O)cc2occc12	58.6
O=C(Nc1cnc(C(F)(F)F)cn1)c1cc(Cl)ccc1O	-5.58
O=c1[nH]cnc2nc[nH]c12	102
CCOC(C)(c1ccc(Cl)cc1)C1CCNCC1 (configuration not stated)	101
CCNC(=S)N(Cc1ccccc1)Cc1ccccc1	91.7
[Ag].[Ag].[NH-]S(=O)(=O)c1ccc(N=Nc2cc(N=Nc3ccc(S([NH-])(=O)=O)cc3)c3c(NC(=O)C(Cl)Cl)cccc3c2OC(=O)C(Cl)Cl)cc1.[c-]1nccs1.[c-]1nccs1	91.8
Oc1c(-c2cc(C(F)(F)F)[nH]n2)cc(Cl)c(OCc2ccc(Cl)cc2)c1-c1ccc(Cl)c(C(F)(F)F)c1	-17.3
O=c1[nH]c2ccccc2n2cc3cccnc3c12	53
COc1cc2nccc(Oc3ccc(NC(=O)C4(C(=O)Nc5ccc(F)cc5)CC4)cc3)c2cc1Oc1ccc(N)cn1	5.29
O=C(NCCNC(=O)c1cc(S(=O)(=O)NCCc2ccccc2)c(O)c(O)c1O)c1cc(S(=O)(=O)NCCc2ccccc2)c(O)c(O)c1O	-15
Clc1ccc(-c2nc(Br)cn3ccnc23)cc1	77.4
CC1=NC(c2ccc(Cl)cc2)C2=C(N1)/C(=C/c1ccc(Cl)cc1)CCC2 (configuration not stated)	83.3
O=C(Nc1ccc(Br)cc1)Nc1ccccc1Cl	56.5
CC(=O)c1c(O)c(C)c(O)c2c1OC1=CC(=O)/C(=C(/C)N)C(=O)C12C (configuration not stated)	77.8
COc1cccc2nc(Nc3cccc(NC(=O)c4ccc(N5CCN(C)CC5)c(C(F)(F)F)c4)c3)ccc12	-38.4
COc1cc(Nc2ccnc3ccc(Br)cc23)cc(OC)c1OC	30.4
C#CC[C@@H]1C[C@]2(C)[C@H]3CC[C@@H]4[C@H]5C(C(=C)C)CC[C@]5(C(=O)NCCCCCCCCN)CC[C@@]4(C)[C@]3(C)CC[C@H]2C(C)(C)[C@H]1OC(C)=O (some centres not stated)	108
COc1ccc(Sc2[nH]c(C=O)c3ccccc23)cc1	46.7
Nc1n[nH]c2ccc([C@@H]3Nc4c(F)cc5[nH]ncc5c4[C@H]4C5CCC(C5)[C@@H]34)cc12 (some centres not stated)	38.1
Cc1ccccc1CNc1ncnc2[nH]ncc12	97.8
CC1CN(CCCOC(=O)Nc2ccc(Cl)cc2)CCN1C(C)(C)C (configuration not stated)	84.8
CCOC(=O)c1ccc(N(CCC(=O)O)C(C)=O)cc1	99.4
CCCCCNCCCCCNc1cc(OC)cc2cccnc12	75.3
Clc1ccc(Nc2ncnc3c2sc2ncccc23)cc1	11.4
O=C1C=CC(=O)N1CO	106
O=c1c2sc3ncc(Cl)cc3c2nnn1-c1cccc(Cl)c1	96.8
O=C1/C(=C\c2cccn2C(=O)c2ccccc2)c2ccccc2N1c1c(Cl)cccc1Cl	59.1
Nc1nc(N)c2c(n1)NC(c1sc(Cl)nc1Cl)CC(c1ccccc1)=N2 (configuration not stated)	45.7
CCOC(CN1CCN(CC(C)C(=O)c2ccccc2)CC1)c1ccccc1 (configuration not stated)	105
COc1ccc(-c2nsc3c2NC(=O)CC3c2ccc3c(c2)OCO3)cc1 (configuration not stated)	42.7
COc1cc(C)c2c(=O)c3c(oc2c1)C(=O)c1c(O)c(OC)cc(O)c1C3=O	22.5
Oc1ccc(CCCCCCc2ccc(O)cc2)cc1	13.7

* * *

test system: OVCAR-3 ovarian; assay: NCI-60 one-dose screen, 48 h (100 = growth as untreated, 0 = no growth, -100 = all killed); conditions: 10 µM unless noted
This is part of a sample that, as a whole, favours compounds with a hit. Of some 83,000 tested, about 20% had one in any assay.

Molecule Smiles	growth, %
Clc1ccc(-c2nc(Br)cn3ccnc23)cc1	82.8
O=C(NC1CC1)c1ccc(-c2nc3ccc4[nH]ncc4c3c3c2CCCC3)cc1	58
CN1CCN(Cc2ccc(NC(=O)c3cncc(C#Cc4ccc(N)nc4)c3)cc2C(F)(F)F)CC1	27.2
CCOC(=O)c1ccc(N(CCC(=O)O)C(C)=O)cc1	120
COc1ccc(-c2nnc(SCC(=O)Nc3ccc(C(=O)/C=C/c4ccc(Cl)cc4)cc3)n2-c2ccccc2)cc1	97.8
CCN(CC)CCCNc1cccc2c(C)cc(OC)nc12	99.9
